// MIC lookup, one value per entry
- Test system: Streptococcus pyogenes A 561
Please give a number only; it is taken to be in µg/mL.

CC[C@H]1OC(=O)[C@H](C)[C@@H](O[C@H]2C[C@@](C)(OC)[C@@H](O)[C@H](C)O2)[C@H](C)[C@@H](O[C@@H]2O[C@H](C)C[C@H](N(C)C)[C@H]2O)[C@](C)(O)C[C@@H](C)C(=NOCOCc2ccccc2)[C@H](C)[C@@H](O)[C@]1(C)O [Example 7]    0.05

Please tell me: MIC of CC[C@H]1OC(=O)[C@H](C)[C@@H](O[C@H]2C[C@@](C)(OC)[C@@H](O)[C@H](C)O2)[C@H](C)[C@@H](O[C@@H]2O[C@H](C)C[C@H](N(C)C)[C@H]2O)[C@](C)(O)C[C@@H](C)C(=NOCOCCN2CCOCC2)[C@H](C)[C@@H](O)[C@]1(C)O [Example 26] , system Streptococcus pyogenes A 561? 0.1

---

Entries with reported MIC on Staphylococcus aureus 1061
OBSERVABLE: MIC (µg/mL)

CC[C@H]1OC(=O)[C@H](C)[C@@H](O[C@H]2C[C@@](C)(OC)[C@@H](O)[C@H](C)O2)[C@H](C)[C@@H](O[C@@H]2O[C@H](C)C[C@H](N(C)C)[C@H]2O)[C@](C)(O)C[C@@H](C)C(=NOC(C)CN(CC)CC)[C@H](C)[C@@H](O)[C@]1(C)O (stereo partly drawn)    0.2

I: CC[C@H]1OC(=O)[C@H](C)[C@@H](O[C@H]2C[C@@](C)(OC)[C@@H](O)[C@H](C)O2)[C@H](C)[C@@H](O[C@@H]2O[C@H](C)C[C@H](N(C)C)[C@H]2O)[C@](C)(O)C[C@@H](C)C(=NOCCC#N)[C@H](C)[C@@H](O)[C@]1(C)O
II: CC[C@H]1OC(=O)[C@H](C)[C@@H](O[C@H]2C[C@@](C)(OC)[C@@H](O)[C@H](C)O2)[C@H](C)[C@@H](O[C@@H]2O[C@H](C)C[C@H](N(C)C)[C@H]2O)[C@](C)(O)C[C@@H](C)C(=NOCCN(C(C)C)C(C)C)[C@H](C)[C@@H](O)[C@]1(C)O
Select one: I or II . Criterion: greater recorded MIC. Reply briefly: the label of your chosen item. II

---

- Test system: Streptococcus pyogenes A 561
OBSERVABLE: MIC (µg/mL)

CCOCCON=C1[C@H](C)C[C@@](C)(O)[C@H](O[C@@H]2O[C@H](C)C[C@H](N(C)C)[C@H]2O)[C@@H](C)[C@H](O[C@H]2C[C@@](C)(OC)[C@@H](O)[C@H](C)O2)[C@@H](C)C(=O)O[C@H](CC)[C@@](C)(O)[C@H](O)[C@H]1C    0.1
CCSCC(O)CON=C1[C@H](C)C[C@@](C)(O)[C@H](O[C@@H]2O[C@H](C)C[C@H](N(C)C)[C@H]2O)[C@@H](C)[C@H](O[C@H]2C[C@@](C)(OC)[C@@H](O)[C@H](C)O2)[C@@H](C)C(=O)O[C@H](CC)[C@@](C)(O)[C@H](O)[C@H]1C (stereo partly shown)    0.05
CC[C@H]1OC(=O)[C@H](C)[C@@H](O[C@H]2C[C@@](C)(OC)[C@@H](O)[C@H](C)O2)[C@H](C)[C@@H](O[C@@H]2O[C@H](C)C[C@H](N(C)C)[C@H]2O)[C@](C)(O)C[C@@H](C)C(=NOCC(OC)OC)[C@H](C)[C@@H](O)[C@]1(C)O    0.1

---

System: Streptococcus pyogenes A 561 | Read-out: MIC

Guide cases for MIC, answers given:
CC[C@H]1OC(=O)[C@H](C)[C@@H](O[C@H]2C[C@@](C)(OC)[C@@H](O)[C@H](C)O2)[C@H](C)[C@@H](O[C@@H]2O[C@H](C)C[C@H](N(C)C)[C@H]2O)[C@](C)(O)C[C@@H](C)C(=NOCCN2CCCCC2)[C@H](C)[C@@H](O)[C@]1(C)O    ≤ 0.01 µg/mL
CC[C@H]1OC(=O)[C@H](C)[C@@H](O[C@H]2C[C@@](C)(OC)[C@@H](O)[C@H](C)O2)[C@H](C)[C@@H](O[C@@H]2O[C@H](C)C[C@H](N(C)C)[C@H]2O)[C@](C)(O)C[C@@H](C)C(=NOCOCCNC)[C@H](C)[C@@H](O)[C@]1(C)O    ≤ 0.01 µg/mL

Let us examine a further case.
Lab note: need MIC for CC[C@H]1OC(=O)[C@H](C)[C@@H](O[C@H]2C[C@@](C)(OC)[C@@H](O)[C@H](C)O2)[C@H](C)[C@@H](O[C@@H]2O[C@H](C)C[C@H](N(C)C)[C@H]2O)[C@](C)(O)C[C@@H](C)C(=NOC(C)CN(C)C)[C@H](C)[C@@H](O)[C@]1(C)O (stereo partly drawn) on Streptococcus pyogenes A 561, anyone have it? ≤ 0.01 µg/mL

---

Staphylococcus aureus 1061 MIC data
OBSERVABLE: MIC (µg/mL)

CC[C@H]1OC(=O)[C@H](C)[C@@H](O[C@H]2C[C@@](C)(OC)[C@@H](O)[C@H](C)O2)[C@H](C)[C@@H](O[C@@H]2O[C@H](C)C[C@H](N(C)C)[C@H]2O)[C@](C)(O)C[C@@H](C)C(=NOCCN2CCCCC2)[C@H](C)[C@@H](O)[C@]1(C)O    0.4

1: CC[C@H]1OC(=O)[C@H](C)[C@@H](O[C@H]2C[C@@](C)(OC)[C@@H](O)[C@H](C)O2)[C@H](C)[C@@H](O[C@@H]2O[C@H](C)C[C@H](N(C)C)[C@H]2O)[C@](C)(O)C[C@@H](C)C(=NOCSc2ccccc2)[C@H](C)[C@@H](O)[C@]1(C)O
2: CC[C@H]1OC(=O)[C@H](C)[C@@H](O[C@H]2C[C@@](C)(OC)[C@@H](O)[C@H](C)O2)[C@H](C)[C@@H](O[C@@H]2O[C@H](C)C[C@H](N(C)C)[C@H]2O)[C@](C)(O)C[C@@H](C)C(=NOCC(=O)C(C)(C)C)[C@H](C)[C@@H](O)[C@]1(C)O
Of 1 and 2 , whose reported MIC is the larger number? Answer = label. 2

From: patent US4349545A
